Taken from ChEMBL document CHEMBL5247630.

- Test system: Human betaherpesvirus 5
- assay_procedure: Antiviral activity against HCMV AD-169 infected in HELF cells assessed as reduction in viral replication
- Format: functional, organism-based
- run_conditions: Human betaherpesvirus 5, AD-169, HELF
Residues, ends and D or L forms follow the SMILES beside them. *: point of attachment. Octanoyl = CCCCCCCC(=O)*; Boc = CC(C)(C)OC(=O)*
measurement_name: EC50

Fill in the blank: the reported EC50 of CCCCCCCC(=O)NCC(=O)N[C@@H](Cc1ccccc1)C(=O)N[C@H](C=O)Cc1c[nH]cn1 (Octanoyl-Gly-Phe-His-aldehyde) is ____.
> 20 µM

# query: EC50 of entry CC(C)(C)OC(=O)NCC(=O)N[C@@H](Cc1ccccc1)C(=O)N[C@H](C=O)Cc1c[nH]cn1 (Boc-Gly-Phe-His-aldehyde)
> 20 µM

GET /values?readout=EC50&item= CC(=O)NCC(=O)N[C@@H](Cc1ccccc1)C(=O)N[C@H](C=O)Cc1c[nH]cn1 (Ac-Gly-Phe-His-aldehyde)
> 20 µM

Data request, read-out EC50, for Nc1ccn(C[C@@H](CO)OCP(=O)(O)O)c(=O)n1
1.08 µM

* * *

- test_target: UniProt:P0DTD1
- assay_procedure: Binding affinity to C-terminal His6-tagged recombinant SARS-CoV-2 MPro transfected in Escherichia coli BL21 (DE3) assessed as dissociation constant by Cheng-Prusoff equation analysis
pKd: −log10 of the molar value. Non-standard residues stand in square brackets, D forms with d. Residues, ends and D or L forms follow the SMILES beside them. Tic = O=C(O)[C@@H]1Cc2ccccc2CN1
I'd appreciate it if you could supply pKd values for the items below.

Please look up its pKd: CC(C)C[C@@H](C=O)NC(=O)[C@H](Cc1ccccc1)NC(=O)[C@@H]1Cc2ccccc2CN1 (H-[Tic]-Phe-Leu-aldehyde)
< 3.67

Record request: pKd value, item CC(=O)NCC(=O)N[C@@H](Cc1ccc(O)cc1)C(=O)N[C@H](C=O)Cc1c[nH]cn1 (Ac-Gly-Tyr-His-aldehyde)
4.00

Value lookup for pKd; key = CC(=O)NCC(=O)N[C@@H](Cc1c[nH]cn1)C(=O)N[C@H](C=O)Cc1ccc(O)cc1 (Ac-Gly-His-Tyr-aldehyde)
< 3.67

* * *

- assay_procedure: Cmax in C57BL6 mouse at 25 mg/kg, po
- Type: ADME, organism-based
- Parameters: dose 25 mg/kg, route po
- run_conditions: in vivo
Residues, ends and D or L forms follow the SMILES beside them. *: point of attachment. Octanoyl = CCCCCCCC(=O)*
measurement_name: Cmax (µg/mL)
Quick note: give the figure in µg/mL, leave out the unit.

Which value of Cmax has been reported for CCCCCCCC(=O)NCC(=O)N[C@@H](Cc1ccccc1)C(=O)N[C@H](C=O)Cc1c[nH]cn1 (Octanoyl-Gly-Phe-His-aldehyde) in the records?
0.0337

* * *

Please respond with reported EC50 for every item in the list.
- Test system: Human alphaherpesvirus 3
- assay_procedure: Antiviral activity against thymidine kinase positive VZV OKA infected in HELF cells assessed as reduction in viral replication
- Format: functional, organism-based
- run_conditions: Human alphaherpesvirus 3, OKA
Residues, ends and D or L forms follow the SMILES beside them. *: point of attachment. Octanoyl = CCCCCCCC(=O)*; Boc = CC(C)(C)OC(=O)*

Find the measured EC50: item CC(C)(C)OC(=O)NCC(=O)N[C@@H](Cc1ccccc1)C(=O)N[C@H](C=O)Cc1c[nH]cn1 (Boc-Gly-Phe-His-aldehyde) , target or system Human alphaherpesvirus 3.
> 100 µM

Give EC50 (Human alphaherpesvirus 3) of the following compound: CC(=O)NCC(=O)N[C@@H](Cc1ccccc1)C(=O)N[C@H](C=O)Cc1c[nH]cn1 (Ac-Gly-Phe-His-aldehyde)
> 100 µM

Item: CCCCCCCC(=O)NCC(=O)N[C@@H](Cc1ccccc1)C(=O)N[C@H](C=O)Cc1c[nH]cn1 (Octanoyl-Gly-Phe-His-aldehyde) Test system: Human alphaherpesvirus 3 Read-out: EC50 Value: ?
> 100 µM

Give the reported EC50 for O=c1[nH]c(=O)n([C@H]2C[C@H](O)[C@@H](CO)O2)cc1/C=C/Br (system: Human alphaherpesvirus 3).
0.17 µM
